B1: WDR88 (parent)
chain: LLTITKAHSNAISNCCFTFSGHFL

Variants of: B1
procedure-details: protein stability index of a GFP-peptide fusion (GPS, HEK-293T) (PSI 1-6); higher = more stable;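 also: lentivirally expressed fusions sorted by FACS into six bins by GFP to DsRed ratio, PSI derived from sequencing read proportions per bin multiplied by bin number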
experimental-context: c terminus: a fixed tail appended
readout-name: protein stability index
Respond numerically, and do not add a unit to the figure.

Reported protein stability index for T5R was 2.72

Reported protein stability index for H22E was 2.89

Reported protein stability index for S13E was 2.6

Reported protein stability index for L24S was 1.09

Reported protein stability index for F17W was 1.45

Reported protein stability index for F17K was 2.43

Reported protein stability index for S13P was 3.02

Reported protein stability index for S20V was 2.54

Reported protein stability index for I12Q was 2.57

Reported protein stability index for H22I was 3.1

Reported protein stability index for T18M was 2.19

Sourced from the supplement of paper PMC10567573
